Items are presented alongside their recorded pIC50.
Target Or Test System: Fatty acid synthase (Homo sapiens) (UniProt P49327)
Sequence (P49327 whole entry, looked up): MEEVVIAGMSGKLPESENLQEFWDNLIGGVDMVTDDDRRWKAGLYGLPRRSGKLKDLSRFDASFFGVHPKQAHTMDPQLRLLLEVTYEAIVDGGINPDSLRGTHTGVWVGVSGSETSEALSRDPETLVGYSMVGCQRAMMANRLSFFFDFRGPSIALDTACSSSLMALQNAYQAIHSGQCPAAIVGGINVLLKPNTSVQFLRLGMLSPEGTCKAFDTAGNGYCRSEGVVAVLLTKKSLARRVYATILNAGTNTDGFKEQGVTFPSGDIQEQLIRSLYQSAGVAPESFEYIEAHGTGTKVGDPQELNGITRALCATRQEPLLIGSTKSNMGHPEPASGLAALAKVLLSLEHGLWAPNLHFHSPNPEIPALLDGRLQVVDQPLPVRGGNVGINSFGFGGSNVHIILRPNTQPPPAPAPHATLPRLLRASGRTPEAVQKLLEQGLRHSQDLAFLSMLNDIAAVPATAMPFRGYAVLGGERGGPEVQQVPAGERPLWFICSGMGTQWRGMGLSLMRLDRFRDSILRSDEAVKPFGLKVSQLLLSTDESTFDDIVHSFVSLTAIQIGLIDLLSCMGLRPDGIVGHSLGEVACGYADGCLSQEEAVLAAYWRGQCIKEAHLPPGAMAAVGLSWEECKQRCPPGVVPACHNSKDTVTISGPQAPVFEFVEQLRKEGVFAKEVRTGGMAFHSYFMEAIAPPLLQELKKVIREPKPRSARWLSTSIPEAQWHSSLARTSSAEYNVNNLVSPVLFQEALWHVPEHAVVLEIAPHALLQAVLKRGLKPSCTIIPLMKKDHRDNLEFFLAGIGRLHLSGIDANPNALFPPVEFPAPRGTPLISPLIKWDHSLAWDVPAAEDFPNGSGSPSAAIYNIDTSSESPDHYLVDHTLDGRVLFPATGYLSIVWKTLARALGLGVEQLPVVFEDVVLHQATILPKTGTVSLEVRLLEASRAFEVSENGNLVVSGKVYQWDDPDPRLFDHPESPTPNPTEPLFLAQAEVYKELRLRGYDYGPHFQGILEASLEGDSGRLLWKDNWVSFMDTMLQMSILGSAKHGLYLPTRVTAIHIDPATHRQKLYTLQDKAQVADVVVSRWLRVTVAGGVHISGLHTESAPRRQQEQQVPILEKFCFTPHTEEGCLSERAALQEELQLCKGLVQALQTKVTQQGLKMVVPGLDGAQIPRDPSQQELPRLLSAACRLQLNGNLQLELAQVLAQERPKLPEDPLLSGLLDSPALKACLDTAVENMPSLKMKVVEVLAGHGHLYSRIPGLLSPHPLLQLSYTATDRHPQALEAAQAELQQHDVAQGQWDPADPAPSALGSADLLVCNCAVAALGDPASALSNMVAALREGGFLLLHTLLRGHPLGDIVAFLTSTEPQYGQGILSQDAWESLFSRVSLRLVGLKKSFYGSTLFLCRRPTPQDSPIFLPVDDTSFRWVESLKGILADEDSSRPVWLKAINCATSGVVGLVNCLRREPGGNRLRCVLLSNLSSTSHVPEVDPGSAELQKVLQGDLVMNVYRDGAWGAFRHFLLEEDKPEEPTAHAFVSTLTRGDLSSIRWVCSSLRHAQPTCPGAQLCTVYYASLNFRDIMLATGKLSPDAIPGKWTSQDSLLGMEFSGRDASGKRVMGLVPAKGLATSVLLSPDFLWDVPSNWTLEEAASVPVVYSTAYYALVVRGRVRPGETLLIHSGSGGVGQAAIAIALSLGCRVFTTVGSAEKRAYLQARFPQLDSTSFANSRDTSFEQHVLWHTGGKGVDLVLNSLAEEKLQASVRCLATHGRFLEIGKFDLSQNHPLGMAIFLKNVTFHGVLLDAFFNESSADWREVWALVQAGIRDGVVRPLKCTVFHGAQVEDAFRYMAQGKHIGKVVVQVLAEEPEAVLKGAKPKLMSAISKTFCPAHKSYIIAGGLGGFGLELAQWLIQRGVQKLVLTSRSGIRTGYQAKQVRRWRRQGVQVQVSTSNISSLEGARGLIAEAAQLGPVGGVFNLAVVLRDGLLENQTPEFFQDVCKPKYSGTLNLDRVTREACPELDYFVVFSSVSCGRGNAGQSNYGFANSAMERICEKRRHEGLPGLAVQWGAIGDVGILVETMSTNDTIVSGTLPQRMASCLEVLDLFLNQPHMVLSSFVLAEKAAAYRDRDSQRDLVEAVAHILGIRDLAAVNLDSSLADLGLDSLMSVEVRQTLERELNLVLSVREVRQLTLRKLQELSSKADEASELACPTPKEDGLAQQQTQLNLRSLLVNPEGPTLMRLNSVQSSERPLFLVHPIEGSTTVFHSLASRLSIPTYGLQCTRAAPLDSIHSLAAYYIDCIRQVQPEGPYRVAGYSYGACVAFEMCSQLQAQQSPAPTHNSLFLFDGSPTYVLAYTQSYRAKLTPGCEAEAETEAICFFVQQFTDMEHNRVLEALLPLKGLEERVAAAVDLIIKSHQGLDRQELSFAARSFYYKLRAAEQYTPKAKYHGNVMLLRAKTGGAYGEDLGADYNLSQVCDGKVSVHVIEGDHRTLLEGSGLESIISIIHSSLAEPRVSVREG
Test: inhibition of FAS-TE enzyme activity – biochemical, endpoint fluorescence, OMFH substrate, round 2, powder samples, SAR follow-up (AID 652287)
Study Conditions: recombinant FAS-TE, OMFH fluorogenic substrate
pIC50: −log10 of the molar value.
Reported Endpoint: pIC50

Compound: CCCCCC(=O)Nc1nc(-c2ccc(S(=O)(=O)N3CCCC3)cc2)cs1
Target Or Test System: Fatty acid synthase (Homo sapiens) (UniProt P49327)
Reported Endpoint: pIC50
Measurement: 6.85
//
Compound: CCCCCCC(=O)Nc1nc(-c2ccc(S(=O)(=O)N3CCCC3)cc2)cs1
Target Or Test System: Fatty acid synthase (Homo sapiens) (UniProt P49327)
Reported Endpoint: pIC50
Measurement: 6.07
//
Compound: CCC(C)C(=O)Nc1nc(-c2ccc(S(=O)(=O)N3CCC(C)CC3)cc2)cs1 (configuration not stated)
Target Or Test System: Fatty acid synthase (Homo sapiens) (UniProt P49327)
Reported Endpoint: pIC50
Measurement: 6.39
//
Compound: CC(C)CC(=O)Nc1nc(-c2ccc(S(=O)(=O)N3CCCC3)cc2)cs1
Target Or Test System: Fatty acid synthase (Homo sapiens) (UniProt P49327)
Reported Endpoint: pIC50
Measurement: 5.79
//
Compound: CCCCCCC(=O)Nc1nc(-c2ccc(S(=O)(=O)N3CCCCC3C)cc2)cs1 (configuration not stated)
Target Or Test System: Fatty acid synthase (Homo sapiens) (UniProt P49327)
Reported Endpoint: pIC50
Measurement: 5.36
//
Compound: CC1CCN(S(=O)(=O)c2ccc(-c3csc(NC(=O)C(C)C)n3)cc2)CC1
Target Or Test System: Fatty acid synthase (Homo sapiens) (UniProt P49327)
Reported Endpoint: pIC50
Measurement: 6.29
//
Compound: CCCCCCC(=O)Nc1nc(-c2ccc(S(=O)(=O)N(CC)CC)cc2)cs1
Target Or Test System: Fatty acid synthase (Homo sapiens) (UniProt P49327)
Reported Endpoint: pIC50
Measurement: 5.86
